The following molecules are listed with their measured pIC50 values.
# assayedTarget: EGFR (mouse) (UniProt P00533)
# measurementSetup: nih3t3 fibroblast
// returns pIC50 (minus log10 of molar concentration), number only

Use the examples below as a reference point.
- Cc1c[nH]c(/C=C2\C(=O)Nc3cccc(C)c32)c1CCC(=O)O: 4.54
- COc1cccc(-c2ccc3c(c2)NC(=O)/C3=C\c2[nH]c(C)c(CCC(=O)O)c2C)c1: 4.62

Consider now this further molecule.
q: Using the record for COc1ccccc1-c1ccc2c(c1)NC(=O)/C2=C\c1[nH]cc(CCC(=O)O)c1C , report its pIC50.
a: 4.72

###

The following compounds are listed with their measured pIC50 values.
# assayedTarget: EGFR (mouse)
# measurementSetup: nih3t3 fibroblast
pIC50: −log10 of the molar value.

Use the examples below as a reference point.
• Cc1c(CCC(=O)O)c[nH]c1/C=C1\C(=O)Nc2cc(-c3ccccc3)ccc21 = 4.66
• Cc1[nH]c(/C=C2\C(=O)Nc3cc(-c4ccccc4)ccc32)c(C)c1CCC(=O)O = 4.66
• Cc1c(CCC(=O)O)c[nH]c1/C=C1\C(=O)Nc2ccc(S(N)(=O)=O)cc21 = < 4.30
• Cc1[nH]c(/C=C2\C(=O)Nc3ccc(Br)cc32)c(C)c1CCC(=O)O = < 4.30
• Cc1[nH]c(/C=C2\C(=O)Nc3ccc(C(=O)O)cc32)c(C)c1CCC(=O)O = < 4.30

q: Using the record for Cc1c[nH]c(/C=C2\C(=O)Nc3ccc(Br)cc32)c1CCC(=O)O , report its pIC50.
a: < 4.30

q: Next compound: Cc1c(CCC(=O)O)c[nH]c1/C=C1\C(=O)Nc2ccccc21
a: < 4.30

q: Next compound: COc1ccc2c(c1)NC(=O)/C2=C\c1[nH]cc(CCC(=O)O)c1C
a: < 4.30

q: Next compound: CCOc1cccc(-c2ccc3c(c2)NC(=O)/C3=C\c2[nH]cc(C)c2CCC(=O)O)c1
a: < 4.30

q: Next compound: Cc1c[nH]c(/C=C2\C(=O)Nc3ccccc32)c1CCC(=O)O
a: < 4.30

q: Next compound: COc1cccc(-c2ccc3c(c2)NC(=O)/C3=C\c2[nH]cc(C)c2CCC(=O)O)c1
a: 4.31

The values you see were collected from the Kinase Knowledgebase extract (Sharma et al. 2016).
